- TARGET DESC: Peroxisome proliferator-activated receptor gamma (Homo sapiens)
- METHOD: qHTS assay to identify small molecule agonists of the peroxisome proliferator-activated receptor gamma (PPARg) signaling pathway (AID 743094)
- SETUP CONDITIONS: HEK293H PPARg-UAS-bla, beta-lactamase FRET ratio, 17 h; series mostly up to 57 µM
- Description: U.S. Tox21 Program National Center for Advancing Translational Sciences [NCATS] NIH Chemical Genomics Center [NCGC] U.S. Environmental Protection Agency [EPA] National Institutes of Environmental Health Sciences [NIEHS] National Toxicology Program [NTP] U.S. Food and Drug Administration [FDA] […]
Records with an inconclusive call do not appear. The source made the active and inactive calls. The call rests on the fitted dose curve; in most records, active means well fitted activation curve with a large enough effect in the signal ratio in the repeat runs (not every such curve was filed as active); inconclusive means weak or mixed curves, or effect the other way; inactive means no such curve, though single readings can be large or run the other way; the % refers to the signal ratio.
Could you please pick one outcome from this set? active, inactive

A selection of reference data follows.
{"MOLECULE": "c1ccc2c(c1)[nH]c1cnccc12", "CLASS": "inactive"}
{"MOLECULE": "Cc1cc(SCc2sc(-c3ccc(C(F)(F)F)c(F)c3)nc2C)ccc1OCC(=O)O", "CLASS": "active"}
{"MOLECULE": "ClC1=C(Cl)C2(Cl)C3C(Cl)C=CC3C1(Cl)C2(Cl)Cl (configuration not stated)", "CLASS": "inactive"}
{"MOLECULE": "CCOP(=O)(NC(C)C)Oc1ccc(SC)c(C)c1 (configuration not stated)", "CLASS": "inactive"}
{"MOLECULE": "ClC(Cl)=C(c1ccc(Cl)cc1)c1ccc(Cl)cc1", "CLASS": "inactive"}
{"MOLECULE": "CN(C)CCc1c[nH]c2cccc(O)c12", "CLASS": "inactive"}
{"MOLECULE": "COP(=S)(OC)Oc1cc(Cl)c(Br)cc1Cl", "CLASS": "inactive"}
{"MOLECULE": "CC(=O)c1cc(C(C)(C)C)cc2c1CCC2(C)C", "CLASS": "inactive"}
{"MOLECULE": "CCN", "CLASS": "inactive"}
{"MOLECULE": "FC(F)(F)c1cccc(C2=CCN(CCc3ccc4ccccc4c3)CC2)c1", "CLASS": "inactive"}

What did this assay record as the result for O=C1NCN(c2ccccc2)C12CCN(CC1COc3ccccc3O1)CC2 (configuration not stated) ? inactive

Test call for this molecule, please: CC1CCC(C(C)C)C(OC(=O)c2ccccc2N)C1 (configuration not stated) inactive

----------
- TARGET DESC: Androgen receptor (Homo sapiens) (UniProt P10275)
- Sequence (P10275 whole entry, looked up): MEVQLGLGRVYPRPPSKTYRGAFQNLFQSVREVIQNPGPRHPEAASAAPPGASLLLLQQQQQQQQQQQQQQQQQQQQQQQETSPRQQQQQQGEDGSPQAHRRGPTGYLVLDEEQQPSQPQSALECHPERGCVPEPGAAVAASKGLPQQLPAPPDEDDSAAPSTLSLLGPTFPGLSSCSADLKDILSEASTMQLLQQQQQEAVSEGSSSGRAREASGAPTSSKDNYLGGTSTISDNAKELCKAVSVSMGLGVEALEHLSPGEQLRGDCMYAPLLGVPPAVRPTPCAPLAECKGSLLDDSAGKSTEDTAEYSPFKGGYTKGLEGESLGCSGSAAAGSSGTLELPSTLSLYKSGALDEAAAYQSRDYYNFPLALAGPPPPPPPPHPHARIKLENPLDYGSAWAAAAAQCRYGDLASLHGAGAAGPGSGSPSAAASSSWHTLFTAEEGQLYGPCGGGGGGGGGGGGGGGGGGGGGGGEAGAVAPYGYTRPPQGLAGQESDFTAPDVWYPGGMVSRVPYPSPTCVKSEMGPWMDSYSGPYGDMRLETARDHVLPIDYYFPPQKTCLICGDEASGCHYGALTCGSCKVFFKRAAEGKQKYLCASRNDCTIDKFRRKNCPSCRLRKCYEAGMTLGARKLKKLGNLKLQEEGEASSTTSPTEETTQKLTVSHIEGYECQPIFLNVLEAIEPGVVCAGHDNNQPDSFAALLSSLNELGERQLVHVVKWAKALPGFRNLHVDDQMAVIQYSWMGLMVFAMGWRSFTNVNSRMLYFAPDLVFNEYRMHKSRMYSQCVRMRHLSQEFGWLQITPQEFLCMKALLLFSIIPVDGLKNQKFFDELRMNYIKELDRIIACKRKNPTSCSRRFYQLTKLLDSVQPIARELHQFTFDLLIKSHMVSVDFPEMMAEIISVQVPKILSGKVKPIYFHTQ
- METHOD: qHTS assay to identify small molecule antagonists of the androgen receptor (AR) signaling pathway using the MDA cell line in the presence of 0.5 nM R1881 (AID 1259243); further: nearly all actives have a fitted effect of over 50% in size; further: potency means the concentration at half of the fitted maximal effect
- SETUP CONDITIONS: MDA-kb2 MMTV-luciferase, R1881 0.5 nM, 16 h; series mostly up to 92.4 µM
Records with an inconclusive call do not appear. Activity calls are given as the source filed them. The call rests on the fitted dose curve; in most records, active means well fitted inhibition curve with a large enough effect in the repeat runs; inconclusive means weak or mixed curves; inactive means no such curve, though single readings can be large or run the other way.
MEASURED METRIC: Potency

{"COMPOUND": "O=C1C=CC(=O)c2ccccc21", "Potency": "19.3 µM (active)"}
{"COMPOUND": "O=[N+]([O-])c1cc([N+](=O)[O-])c2ccccc2c1", "Potency": "4.33 µM (active)"}
{"COMPOUND": "COC(=O)N(C(=O)N1CO[C@@]2(C(=O)OC)Cc3cc(Cl)ccc3C2=N1)c1ccc(OC(F)(F)F)cc1", "Potency": "23.5 µM (active)"}
{"COMPOUND": "CC1(C)CC/C(=C/c2ccc(Cl)cc2)C1(O)Cn1cncn1 (configuration not stated)", "Potency": "1.21 µM (active)"}
{"COMPOUND": "CCOC(=O)C1(c2ccccc2)CCN(CCC(C#N)(c2ccccc2)c2ccccc2)CC1", "Potency": "29.8 µM (active)"}

Indicate its recorded Potency; the compound in question is N#Cc1c(-c2ccc(Cl)cc2)[nH]c(C(F)(F)F)c1Br 0.433 µM (active)

Quickly give me recorded Potency for CN(CCCC(=O)c1cccnc1)N=O inactive

Output measured Potency for this item: CCCCOCN(C(=O)CCl)c1c(CC)cccc1CC 30.6 µM (active)

Could you please provide reported Potency for CC1(C)CN=C(NN=C(/C=C/c2ccc(C(F)(F)F)cc2)/C=C/c2ccc(C(F)(F)F)cc2)NC1 ? Thanks! 17.2 µM (active)

Output Potency of N#CCCSCCC#N inactive

Provide one value: measured Potency of CCN(CC)c1c([N+](=O)[O-])cc(C(F)(F)F)c(N)c1[N+](=O)[O-] 27.3 µM (active)

Report Potency for N#Cc1ccccc1N inactive

FYI, the data here is from PubChem BioAssay (Tox21).
